- Tested on: PC-3
- procedure-details: NCI tumour cell line growth inhibition, 48 h
Active and inactive are the calls of the source. Rule as the data show it: active = GI50 up to about 1.1 µM and inactive = higher.
Pick one and only one: Yes for active, No for inactive

Some solved cases for reference:
{"compound": "COC(=O)c1c(O)ccc2c1c1cc3ccccc3c(O)c1n2Cc1ccccc1Cl", "qualitative-label": "No"}
{"compound": "O=C1C=CC2(O[C@H](c3ccccc3)[C@@H](c3ccccc3)O2)[C@H](Sc2ccccc2O)C1", "qualitative-label": "Yes"}
{"compound": "[N-]=[N+]=NC[C@H]1OCO[C@H](CN=[N+]=[N-])[C@@H](OCCOCCCl)[C@@H]1OCCOCCCl", "qualitative-label": "No"}
{"compound": "Cc1nc(O)nc2nc3ccc(Cl)cc3c(N(CCO)CCO)c12", "qualitative-label": "No"}
{"compound": "C/C(=N\\Nc1nc2ccccc2o1)c1cc2ccccc2cn1", "qualitative-label": "Yes"}

Task: Check the results log: what was the call for O=C1Sc2cc3ccccc3cc2C(=O)Sc2cc3ccccc3cc21 ?
Result: No

Task: Also need COC1(C(C)(C)C)C=C(C(C)(C)C)P(=O)(O)O1 (stereo not given) , thanks.
Result: No

Task: Also need NC(C(=O)O)C(N)C(=O)O (stereo not given) , thanks.
Result: No

Task: Also need CCOC(=O)C1C(c2ccc3c(c2)OCO3)c2c(n[nH]c2O)CC1(O)OCC (stereo not given) , thanks.
Result: No

Task: Also need C(#C[C@@]12CCC[C@@H]1N(Cc1ccccc1)CO2)c1ccc2c(c1)OCO2 , thanks.
Result: No

Task: Also need Cc1ccc(-n2nnc(C(N)=O)c2O)cc1 , thanks.
Result: No

Task: Also need CC1=CC(=O)/C(=C/N2C(=O)CNC2=S)C(=O)O1 , thanks.
Result: No

###

- Tested on: IGROV-1
- procedure-details: NCI tumour cell line growth inhibition, 48 h
Active and inactive are the calls of the source. Rule as the data show it: active = GI50 up to about 1.1 µM and inactive = higher.
measured-parameter: GI50

Check out these entries, answers already filled in.
{"molecule": "CCOC(=O)C1(C(=O)OCC)Nc2cccnc2N(C)N1", "GI50": "22.8 µM (inactive)"}
{"molecule": "Nc1c2ccccc2nc2c(C(=O)Nc3ccc(S(N)(=O)=O)cc3)cccc12", "GI50": "> 100 µM (inactive)"}
{"molecule": "NC(=O)N/N=C/c1ccccc1O", "GI50": "> 100 µM (inactive)"}
{"molecule": "COc1cc2c(cc1OC)C1Cc3ccccc3CN1CCC2 (stereo not given)", "GI50": "> 100 µM (inactive)"}
{"molecule": "CCN(CC)CC1CCCCN1CC(=O)N1CC(C)C(=O)Nc2ccccc21 (stereo not given)", "GI50": "> 100 µM (inactive)"}
{"molecule": "Cn1cnc([N+](=O)[O-])c1[Se]c1ncnc2nc[nH]c12", "GI50": "3.38 µM (inactive)"}

Task: GET /values?readout=GI50&item= N#Cc1c(N)c(C#N)c2c(c1-c1ccc(Cl)cc1)COc1ccccc1-2
Result: 20.4 µM (inactive)

Task: Also need COc1ccc(-c2cc(O)c3cc(C)cnc3n2)cc1 , thanks.
Result: 4.12 µM (inactive)

###

- Tested on: A498
- procedure-details: NCI tumour cell line growth inhibition, 48 h
Calls of active or inactive are those of the source. No stated cut-off is given here; in the data, active = GI50 up to about 1.1 µM and inactive = higher.
Pick one and only one: 1 (active), -1 (inactive)

{"compound": "Cc1nc(O)nc2nc3ccc(Cl)cc3c(N(CCO)CCO)c12", "tested-target": "A498", "qualitative-label": -1}

Task: Check the results log: what was the call for CC(=O)OCC1OC(OC2C(COC(C)=O)OC(Sc3ccccc3C)C(OC(C)=O)C2OC(C)=O)C(OC(C)=O)C(OC(C)=O)C1OC(C)=O (stereo not given) ?
Result: -1

Task: Also need CC(=O)OC1=CC2=CC[C@H]3[C@@H]4CCC(=O)[C@@]4(C)CC(=O)[C@]3(S)[C@@]2(C)CC1 , thanks.
Result: -1

Task: Also need Cc1cc2[nH]c3[nH]c(=O)[nH]c(=O)c3c2cc1C , thanks.
Result: -1

Task: Also need CCCCCCCCCCCC(=O)NCc1ccc(OC(=O)CCCCCCCCCCC)c(OC)c1 , thanks.
Result: -1

Task: Also need O=C1C[C@H]2CCCN2[C@@H](c2ccccc2)C1 , thanks.
Result: -1

Task: Also need COC(=O)C(CCSC)NC(=O)Cc1ccc(C(=O)c2ccccc2)cc1 (stereo not given) , thanks.
Result: -1

###

- Test system: RPMI-8226
- procedure-details: NCI tumour cell line growth inhibition, 48 h
The source made the active and inactive calls. Rule as the data show it: active = GI50 up to about 1.1 µM and inactive = higher.
Pick one and only one: TRUE = active, FALSE = inactive

Some solved cases for reference:
{"compound": "O=C1C=CC2(O[C@H](c3ccccc3)[C@@H](c3ccccc3)O2)[C@H](Sc2ccccc2O)C1", "qualitative-label": "TRUE"}
{"compound": "O=C(c1ccccc1)C1C(c2ccccc2[N+](=O)[O-])N1C1CCCCC1 (stereo not given)", "qualitative-label": "FALSE"}
{"compound": "N#CC(NNC(=O)c1c(Cl)c(Cl)c(Cl)c(Cl)c1-c1nc2cc(C(=O)c3ccccc3)ccc2[nH]1)c1cccc(Oc2ccccc2)c1 (stereo not given)", "qualitative-label": "FALSE"}
{"compound": "O=[PH](O)c1cc2ccccc2c2ccccc12", "qualitative-label": "FALSE"}

Task: Check the results log: what was the call for Cc1oc2c(C)c3oc(=O)cc(C)c3cc2c1CN ?
Result: FALSE

###

- Tested on: RPMI-8226
- procedure-details: NCI tumour cell line growth inhibition, 48 h
The source made the active and inactive calls. No stated cut-off is given here; in the data, active = GI50 up to about 1.1 µM and inactive = higher.
measured-parameter: GI50

Check out these entries, answers already filled in.
{"molecule": "COc1cc(Cl)cc(N(O)C(C)=O)c1OCc1ccccc1", "tested-target": "RPMI-8226", "GI50": "96.6 µM (inactive)"}
{"molecule": "N#C/C(=C\\c1ccc(O)c(O)c1)C(N)=O", "tested-target": "RPMI-8226", "GI50": "15.5 µM (inactive)"}
{"molecule": "COc1ccc(OC)c2nc3c(C(=O)NCCN(C)C)cccc3nc12", "tested-target": "RPMI-8226", "GI50": "2.84 µM (inactive)"}
{"molecule": "COC(=O)C1=CC2C(=O)OC1CC2C#N (configuration not stated)", "tested-target": "RPMI-8226", "GI50": "> 100 µM (inactive)"}
{"molecule": "O=C(O)Cc1ccccc1CCc1ccccc1Cl", "tested-target": "RPMI-8226", "GI50": "> 100 µM (inactive)"}
{"molecule": "Oc1ccc(/C=C\\c2nnc(/C=C\\c3ccc(O)c(O)c3)s2)cc1O", "tested-target": "RPMI-8226", "GI50": "1.32 µM (inactive)"}
{"molecule": "COC(=O)C1=C(O)C(C(=O)OC)[C@]2(O)[C@H](C(=O)OC)[C@H]1C[C@@H](c1cccc(OC)c1)[C@H]2C(=O)OC (some centres not stated)", "tested-target": "RPMI-8226", "GI50": "19.4 µM (inactive)"}
{"molecule": "c1ccc(CCCNc2nnnc3ccccc23)cc1", "tested-target": "RPMI-8226", "GI50": "35.8 µM (inactive)"}

Task: GET /values?readout=GI50&item= CN(C)Cc1ccc(O)c(CN(C)C)n1
Result: > 100 µM (inactive)

Task: Also need O=C(O)c1cnccc1-c1cc(=O)[nH]n1-c1ccccc1 , thanks.
Result: 48 µM (inactive)

Task: Also need Nc1cc(S(N)(=O)=O)ccc1SSc1ccc(S(N)(=O)=O)cc1N , thanks.
Result: > 100 µM (inactive)

###

// endpoint GI50 / system HCT-15

{"molecule": "COc1cc2c(c(OC)c1OC)-c1ccc(SC)c(=O)cc1[C@@H](OC(C)=O)CC2", "measured-parameter": "GI50", "result": "< 0.01 µM"}
{"molecule": "CN(CN1C(=O)C2Cc3ccccc3CN2C1=O)c1ccccn1 (centres undefined)", "measured-parameter": "GI50", "result": "> 100 µM"}
{"molecule": "c1csc(-c2cscc2-c2cccs2)c1", "measured-parameter": "GI50", "result": "35.8 µM"}

Task: GET /values?readout=GI50&item= CC/C(CC(=O)CCC(=O)Nc1ccc(C)c(C)c1)=N\NC(=O)c1cc2ccccc2cc1O
Result: 13.9 µM

Task: Also need CCc1ccccc1NC(=O)/C(=N/O)C(C)=O , thanks.
Result: > 100 µM

###

- Test system: M14
- procedure-details: NCI tumour cell line growth inhibition, 48 h
Activity calls are given as the source filed them. Rule as the data show it: active = GI50 up to about 1.1 µM and inactive = higher.
Pick one and only one: active, inactive

Some solved cases for reference:
{"molecule": "C=C(C)COC(=O)COCC(=O)OCC(=C)C", "qualitative-label": "inactive"}
{"molecule": "COc1ccc(C(=O)N2CCN(c3ccc4[nH]c(=O)oc4c3)CC2)cc1", "qualitative-label": "inactive"}
{"molecule": "Nc1nc(-c2ccccc2)cc(-c2ccccc2O)n1", "qualitative-label": "inactive"}
{"molecule": "CCS(=O)(=O)c1c2cc(OC)ccc2nc2ccc(OC)cc12", "qualitative-label": "inactive"}
{"molecule": "Cc1nc(O)nc2nc3ccc(Cl)cc3c(N(CCO)CCO)c12", "qualitative-label": "inactive"}

Please examine the following record next.
Task: Check the results log: what was the call for CC(=O)C1C(=O)C(=O)N(c2ccc([N+](=O)[O-])cc2[N+](=O)[O-])C1=O (stereo not drawn) ?
Result: inactive
